- ASSAY_SYSTEM: CbuqPBP1 (Cyrtotrachelus buqueti, UniProt A0A1B3IIF7, F69A)
- Construct: E. coli BL21(DE3), pET-28a(+); His-tag cut with enterokinase; about 400 bp insert, 16 kDa
- Sequence (A0A1B3IIF7 17-143, stated change not applied): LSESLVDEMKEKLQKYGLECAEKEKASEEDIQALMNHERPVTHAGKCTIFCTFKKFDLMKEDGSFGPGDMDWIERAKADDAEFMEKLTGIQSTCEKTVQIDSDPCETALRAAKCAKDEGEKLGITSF
- METHOD_SUMMARY: competitive displacement of 1-NPN fluorescence
- Assay type: binding
// values below are reported Ki
Number plus unit, in that order.

Data request: Consider the molecule shown here: CCCCOC(=O)c1ccccc1C(=O)OCCCC [dibutyl phthalate] What is its recorded Ki?
Data returned: 13.9 µM

More entries:
Data request: Consider the molecule shown here: c1ccc2scnc2c1 What is its recorded Ki?
Data returned: 7.3 µM

* * *

- ASSAY_SYSTEM: CbuqPBP1 (Cyrtotrachelus buqueti, UniProt A0A1B3IIF7, H53A)
- Construct: E. coli BL21(DE3), pET-28a(+); His-tag cut with enterokinase; about 400 bp insert, 16 kDa
- Sequence (A0A1B3IIF7 17-143, stated change not applied): as above
- METHOD_SUMMARY: fluorescence titration, Scatchard plot
PROPERTY_MEASURED: pKd
Schema: pKd number; meaning minus log10 of the concentration expressed in molar units.

Data request: Consider the compound shown here: c1ccc(Nc2cccc3ccccc23)cc1 What is its recorded pKd?
Data returned: 5.47

Hello, the source for this data is paper PMC6796961, in case you need it.
